- Test system: calcium induced contraction of the isolated thoracic aorta in rats
- protocol.notes: Calcium antagonistic activity: relaxation of calcium induced contraction of isolated thoracic aorta
- Assay type: cell-based, rat (male Wistar strain)
- assay.setup: spiral specimen of rat thoracic aorta, 80 mM potassium, 10 mM Ca++; relaxing activity; read-out: Minimum effective concentration
readout.name: minimal effective concentration (µM)
Numbers only; they are read as µM.

Lookup: // minimal effective concentration lookup, key: COc1ccc(OC)c(Cc2nc3ccc(OC(C)C)cc3c(=O)n2CCCN(C)CCc2ccc(OC)c(OC)c2)c1 [Compound 103]
Found: 0.1

Lookup: Please do the same for COc1ccc(OC)c(Cc2nc3ccc(OC(C)C)cc3c(=O)n2CCN(C)C)c1 [Compound 47] as well.
Found: 0.1

Lookup: Please do the same for COc1ccc(OC)c(Cc2nc3ccccc3c(=O)n2CCN2CCCC2)c1 [Compound 15] as well.
Found: 0.3

Lookup: Please do the same for COc1ccc(OC)c(Cc2nc3ccc(C)cc3c(=O)n2CCN(C)CCc2ccc(OC)c(OC)c2)c1 [Compound 114] as well.
Found: 0.1

Lookup: Please do the same for CCN(CC)CCn1c(Cc2ccccc2OCc2ccccc2)nc2ccccc2c1=O [Compound 19] as well.
Found: 0.3

Lookup: Please do the same for COc1ccc(OC)c(Cc2nc3ccc(C)cc3c(=O)n2CCN2CCCC2)c1 [Compound 31] as well.
Found: 1

Lookup: Please do the same for CCN(CC)CCn1c(Cc2ccc(OCc3ccccc3)cc2)nc2ccccc2c1=O [Compound 20] as well.
Found: 0.3

Lookup: Please do the same for CCN(CC)CCCn1c(Cc2cc(OC)ccc2OC)nc2ccccc2c1=O [Compound 14] as well.
Found: 1

* * *

- System: spontaneously hypertensive rats (SHR), average blood pressure
- protocol.notes: Antihypertensive activity in spontaneously hypertensive rats
- Assay type: in vivo, rat (SHR)
- assay.setup: oral, 10 mg/kg, 3 hours
- Protocol: Antihypertensive activity The compounds to be tested were administered orally to evaluate antihypertensive activity in spontaneously hypertensive rats (hereinafter SHR). The average blood pressure of male SHR, 20 to 30 weeks old, was measured in a non-anestetised and non restraint state, through a catheter which had been chronically implanted into the abdominal aorta through the right fermoral artery, using an electromanometer. […]
readout.name: Increase rate of average blood pressure after administration, after 3 hours (%)
Numbers only; they are read as %.

Lookup: // Increase rate of average blood pressure after administration, after 3 hours lookup, key: COc1ccc(OC)c(Cc2nc3ccc(OC(C)C)cc3c(=O)n2CCN(C)CCc2ccc(OC)c(OC)c2)c1
Found: -2

Lookup: Please do the same for COc1ccc(OC)c(Cc2nc3ccc(OC(C)C)cc3c(=O)n2CCN(C)C)c1 as well.
Found: -3

Lookup: Please do the same for COc1ccc(Cc2nc3cc(OC)c(OC(C)C)cc3c(=O)n2CCN(C)C)cc1 as well.
Found: -15

Lookup: Please do the same for COc1ccc(Cc2nc3ccc(OC(C)C)cc3c(=O)n2CCN(C)C)cc1 as well.
Found: -7

* * *

- Tested on: calcium induced contraction of the isolated thoracic aorta in rats
- protocol.notes: Calcium antagonistic activity: relaxation of calcium induced contraction of isolated thoracic aorta
- Assay type: cell-based, rat (male Wistar strain)
- assay.setup: spiral specimen of rat thoracic aorta, 80 mM potassium, 10 mM Ca++; relaxing activity; read-out: Minimum effective concentration
readout.name: minimal effective concentration
Answer with the number, then the unit.

Lookup: // minimal effective concentration lookup, key: CCN(CC)CCn1c(Cc2cc(OC)ccc2OC)nc2ccc(I)cc2c1=O [Compound 26]
Found: 1 µM

Lookup: Please do the same for CCN(CC)CCn1c(Cc2cc(OC)ccc2OC)nc2ccccc2c1=O [Compound 13] as well.
Found: 3 µM

Lookup: Please do the same for CCC(C)Oc1ccc2nc(Cc3cc(OC)ccc3OC)n(CCN(C)C)c(=O)c2c1 (stereo not drawn) [Compound 63] as well.
Found: 0.3 µM

Attribution: patent US4668682A
